Target: FLAG-tagged human Ang2 (human) (UniProt O15123)
Sequence (O15123 19-496): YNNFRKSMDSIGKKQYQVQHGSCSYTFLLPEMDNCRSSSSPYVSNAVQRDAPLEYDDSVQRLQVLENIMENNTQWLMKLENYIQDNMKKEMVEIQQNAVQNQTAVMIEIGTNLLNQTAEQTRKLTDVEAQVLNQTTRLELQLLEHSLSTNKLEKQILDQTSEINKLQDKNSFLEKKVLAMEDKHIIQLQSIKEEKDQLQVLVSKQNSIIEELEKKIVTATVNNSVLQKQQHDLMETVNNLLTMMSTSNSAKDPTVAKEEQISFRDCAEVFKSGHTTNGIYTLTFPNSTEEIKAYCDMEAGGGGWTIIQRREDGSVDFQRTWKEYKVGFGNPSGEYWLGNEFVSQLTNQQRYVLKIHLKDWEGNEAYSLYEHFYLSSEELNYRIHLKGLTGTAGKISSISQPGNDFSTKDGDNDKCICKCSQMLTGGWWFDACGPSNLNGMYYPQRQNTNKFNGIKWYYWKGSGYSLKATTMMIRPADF
Experiment: competition ELISA: FLAG-hAng2 binding to coated hTie2-Fc
value_type: IC50 (nM)

1) VHH 00027 (VHH, not shown: small tags and cut ends) VHH: EVQLVESGGGLVQAGGSLRLSCAASGFTLDDYAIGWFRQAPGKEREGVSSIRDNDGSTYYADSVKGRFTISSDNDKNTVYLQMNSLKPEDTAVYYCAAVPAGRLRFGEQWYPLYEYDAWGQGTLVTVSS ... 0.672

(A) VHH 00909 (VHH, not shown: small tags and cut ends) VHH: EVQLVESGGGLVQPGGSLRLSCAASGITIDDYAIGWFRQAPGKEREGVSSIRDNGGSTYYADSVKGRFTISSDNSKNTVYLQMNSLRPEDTAVYYCAAVPAGRLRFGEQWYPIYEYDAWGQGTLVTVSS
(B) VHH 00919 (VHH, not shown: small tags and cut ends) VHH: EVQLVESGGGLVQPGGSLRLSCAASGFTLDDYAIGWFRQAPGKEREGVSAIRDNGGSTYYADSVKGRFTISSDNSKNTVYLQMNSLRPEDTAVYYCAAVPAGRLRFGEQWYPLYEYDAWGQGTLVTVSS
(C) VHH 00900 (VHH, not shown: small tags and cut ends) VHH: EVQLVESGGGLVQAGGSLRLSCAVSGFTLDDYAIGWFRQAPGKEREGVSSIRDNDGSTYYADSVKGRFTISSDNDKNTVYLQMNSLKPEDTAVYYCAAVPAGRLRFGEQWYPLYEYDAWGQGTLVTVSS
**Query** Rank descending by IC50. Give your ranking as a list of the labels in the requested order.
**Result** B, C, A
